These entries and their values trace back to ChEMBL document CHEMBL4513216.

Reported cytotoxicity at 10 µM is given for each of the following molecules.
assay: Toxicity liver stage against HepG2, at 10uM; format: cell-based; design: test concentration 10 uM, cell line HepG2-A16-CD81EGFP; conditions: human, HepG2-A16-CD81EGFP cells; read-out: INHIBITION

>  <molecule>
Fc1ccccc1CN1CCC(c2noc(-c3ccccn3)n2)CC1

>  <cytotoxicity at 10 µM [%]>
-1.39

$$$$
>  <molecule>
O=C(CN1C(=O)CCC1=O)NCc1cc(C2CC2)n(C2CCCC2)n1

>  <cytotoxicity at 10 µM [%]>
1.74

$$$$
>  <molecule>
CCN1CCC2(CCC1=O)CN(C1CCOCC1)CCN2C (stereo unspecified)

>  <cytotoxicity at 10 µM [%]>
-1.14

$$$$
>  <molecule>
CN1CCOC(CNCc2coc(-c3ccccc3)n2)C1 (stereo unspecified)

>  <cytotoxicity at 10 µM [%]>
-5.1

$$$$
>  <molecule>
CCNC(=O)N1CCC(NC(=O)NCCCc2cccc(F)c2)C1 (stereo unspecified)

>  <cytotoxicity at 10 µM [%]>
-47.5

$$$$
>  <molecule>
COc1ccccc1CNC(=O)N1CCCC(NS(C)(=O)=O)C1 (stereo unspecified)

>  <cytotoxicity at 10 µM [%]>
5.05

$$$$
>  <molecule>
Cc1cc(NC(=O)N2CCC[C@@H]2CO)nn1-c1cccc(Cl)c1

>  <cytotoxicity at 10 µM [%]>
-1.08

$$$$
>  <molecule>
Cc1cccc(CN2CCCC2c2cncc(Nc3nncs3)n2)c1 (stereo unspecified)

>  <cytotoxicity at 10 µM [%]>
-3.47

$$$$
>  <molecule>
O=C([C@H]1COC[C@H]2CN(CC3CC3)C[C@H]21)N1CCOCC1

>  <cytotoxicity at 10 µM [%]>
11.8

$$$$
>  <molecule>
Cc1nn(CCC(=O)N(C)Cc2c(Cl)cnn2C)cc1Br

>  <cytotoxicity at 10 µM [%]>
1.29

$$$$
>  <molecule>
CCSc1ccc(C(=O)N2CC[C@](O)(CC)[C@H](O)C2)s1

>  <cytotoxicity at 10 µM [%]>
-7.17

$$$$
>  <molecule>
CN(Cc1ccccc1Br)C(=O)Cn1nc(-c2ccc(F)cc2)oc1=O

>  <cytotoxicity at 10 µM [%]>
9.46

$$$$
>  <molecule>
O=C(NCCO)NC(c1ccccc1)c1ccc2c(c1)CCCO2 (stereo unspecified)

>  <cytotoxicity at 10 µM [%]>
2.73

$$$$
>  <molecule>
Cc1noc(C[C@@H]2COC[C@H]3CN(C(=O)C4=CCCC4)C[C@@H]23)n1

>  <cytotoxicity at 10 µM [%]>
-0.91

$$$$
>  <molecule>
Cc1cccc(COC[C@@H]2CC[C@H]3[C@H](CCN3Cc3ccco3)O2)n1

>  <cytotoxicity at 10 µM [%]>
-9.81

$$$$
>  <molecule>
COc1ncccc1CNC(=O)N(Cc1ccc(F)cc1F)C1CC1

>  <cytotoxicity at 10 µM [%]>
0.139

$$$$
>  <molecule>
Cc1cc(N2CCN(C(=O)c3cc(Cl)c[nH]3)CC2)nc(C(C)C)n1

>  <cytotoxicity at 10 µM [%]>
3.49

$$$$
>  <molecule>
Cc1ccnc(NC(=O)CSCc2cccnc2)c1

>  <cytotoxicity at 10 µM [%]>
-42.2

$$$$
>  <molecule>
COC[C@H]1CC[C@@H]2[C@@H](CCN2Cc2ccccn2)O1

>  <cytotoxicity at 10 µM [%]>
-72.6

$$$$
>  <molecule>
O=C(CN1CCCC1c1noc(C2CC2)n1)N1CCc2ccccc21 (stereo unspecified)

>  <cytotoxicity at 10 µM [%]>
-5.86

$$$$
>  <molecule>
CC(C)n1cc(N2CC(C(=O)N3CCC(C(N)=O)CC3)CC2=O)cn1 (stereo unspecified)

>  <cytotoxicity at 10 µM [%]>
-4.51

$$$$
>  <molecule>
Cn1cc(CN2CC[C@H]3OCC[C@@H](C(=O)NC4CCCC4)[C@@H]3C2)cn1

>  <cytotoxicity at 10 µM [%]>
0.835

$$$$
>  <molecule>
Cc1c(C(=O)N2CCC(N3CCCCC3)CC2)n(C)c2ccc(Cl)cc12

>  <cytotoxicity at 10 µM [%]>
-63.8

$$$$
>  <molecule>
Cn1c(C(=O)N2CCC(C3OCCO3)CC2)c(Cl)c2ccccc21

>  <cytotoxicity at 10 µM [%]>
13.7

$$$$
>  <molecule>
O=C1[C@H]2CN(c3ncccn3)C[C@H]2CN1CCN1CCCC1

>  <cytotoxicity at 10 µM [%]>
2.2

$$$$
>  <molecule>
CCn1cc(CNC(=O)CC(C)C)cn1

>  <cytotoxicity at 10 µM [%]>
4.18

$$$$
>  <molecule>
CCOC(=O)c1ccc(CNC(=O)c2ccc(Cl)cn2)o1

>  <cytotoxicity at 10 µM [%]>
6.72

$$$$
>  <molecule>
CC(=O)N1CCn2c(-c3ccccc3)cnc2C12CCNCC2

>  <cytotoxicity at 10 µM [%]>
7.43

$$$$
>  <molecule>
COCCN1Cc2ccccc2C2(CCN(C(=O)c3ccno3)CC2)C1

>  <cytotoxicity at 10 µM [%]>
5.58

$$$$
>  <molecule>
CCc1cn[nH]c1C1CCN(c2cc(C)c3cccc(OC)c3n2)CC1

>  <cytotoxicity at 10 µM [%]>
19

$$$$
>  <molecule>
COc1ncc(C2(O)CCN(Cc3cccc(F)c3F)CC2)c(OC)n1

>  <cytotoxicity at 10 µM [%]>
-8.33

$$$$
>  <molecule>
CCn1ncc(Nc2[nH]cnc3nncc2-3)c1C

>  <cytotoxicity at 10 µM [%]>
7.29

$$$$
>  <molecule>
O=C(NCCOc1ccc2c(c1)CCC2)N1CCS(=O)(=O)CC1

>  <cytotoxicity at 10 µM [%]>
-1.71

$$$$
>  <molecule>
CS(=O)(=O)NCc1ncn2c1CN(C(=O)CC1CCCC1)CCC2

>  <cytotoxicity at 10 µM [%]>
4.79

$$$$
>  <molecule>
CC(C)c1ncc(CN2C[C@@H](CN3CCCC3)[C@@H](CO)C2)cn1

>  <cytotoxicity at 10 µM [%]>
-7.3

$$$$
>  <molecule>
Cc1cc(C2CCCN(Cc3ncc(C(C)C)o3)C2)n[nH]1 (stereo unspecified)

>  <cytotoxicity at 10 µM [%]>
4.29

$$$$
>  <molecule>
O=C(NCCC1=CCCCC1)NCc1nnc2n1CCC2

>  <cytotoxicity at 10 µM [%]>
-5.6

$$$$
>  <molecule>
CS(=O)(=O)NC[C@]12COC[C@H]1CN(C(=O)c1ncccn1)C2

>  <cytotoxicity at 10 µM [%]>
4.9

$$$$
>  <molecule>
Cc1ccc(=O)n(Cc2csc(N(C)C3CC3)n2)n1

>  <cytotoxicity at 10 µM [%]>
4.09

$$$$
>  <molecule>
c1ccc(CCCC2CN(Cc3ncc[nH]3)CCO2)cc1 (stereo unspecified)

>  <cytotoxicity at 10 µM [%]>
-3.83

$$$$
>  <molecule>
COc1ccc(C(=O)N2Cc3c(Cn4ccnc4)nn(C)c3C2)cc1

>  <cytotoxicity at 10 µM [%]>
4.89

$$$$

====

assay: Toxicity liver stage against HepG2, at 10uM; format: cell-based; parameters: test concentration 10 uM, cell line HepG2-A16-CD81EGFP; conditions: human, HepG2-A16-CD81EGFP cells; read-out: INHIBITION
Reported cytotoxicity at 10 µM is given for each of the following compounds.
propertyName: cytotoxicity at 10 µM (%)

>  <compound>
O=C(CO)N1CCN(C(=O)c2coc3ccccc23)CC1

>  <propertyName>
cytotoxicity at 10 µM

>  <reported>
3.16

$$$$
>  <compound>
O=C1CCCCN1CCCC(=O)N1CCC2(CC1)[C@H](O)C[C@@H]2O

>  <propertyName>
cytotoxicity at 10 µM

>  <reported>
1.12

$$$$
>  <compound>
COC(=O)c1cnc(C(=O)N(c2ccc(OC)c(F)c2)C(C)C)cn1

>  <propertyName>
cytotoxicity at 10 µM

>  <reported>
-1.23

$$$$
>  <compound>
Cc1nc(-c2nc(C(=O)N(C)C)c3ccccn23)cn1C(C)C

>  <propertyName>
cytotoxicity at 10 µM

>  <reported>
-121

$$$$
>  <compound>
O=C(c1cccnc1N1CCOCC1)N1CCCC1Cn1cccn1 (stereo not drawn)

>  <propertyName>
cytotoxicity at 10 µM

>  <reported>
-2.53

$$$$
>  <compound>
CN(Cc1nnn(CC2CCC2)n1)C(=O)c1ccccc1

>  <propertyName>
cytotoxicity at 10 µM

>  <reported>
-6.06

$$$$
>  <compound>
Cc1cccc(Nc2cc(C)nc(C3CCCCN3CC(N)=O)n2)n1 (stereo not drawn)

>  <propertyName>
cytotoxicity at 10 µM

>  <reported>
-4.03

$$$$
>  <compound>
NC(=O)c1ccccc1Oc1cnc(C2CCCN2)cn1 (stereo not drawn)

>  <propertyName>
cytotoxicity at 10 µM

>  <reported>
0.288

$$$$
